# subject-of-test: p38a/PRAK (Homo sapiens (Human), UniProt Q16539)
# Sequence (Q16539 whole entry): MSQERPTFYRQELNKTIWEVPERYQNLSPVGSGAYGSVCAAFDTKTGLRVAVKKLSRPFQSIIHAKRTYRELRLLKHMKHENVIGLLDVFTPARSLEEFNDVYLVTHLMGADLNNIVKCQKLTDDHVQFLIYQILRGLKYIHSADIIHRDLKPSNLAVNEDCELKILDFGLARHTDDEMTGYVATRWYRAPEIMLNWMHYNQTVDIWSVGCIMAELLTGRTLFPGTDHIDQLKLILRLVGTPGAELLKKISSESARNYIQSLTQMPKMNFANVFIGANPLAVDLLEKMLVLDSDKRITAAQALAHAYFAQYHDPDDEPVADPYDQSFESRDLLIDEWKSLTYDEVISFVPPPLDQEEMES
# test-method-notes: p38a/PRAK biochemical assay: activation of PRAK by p38, FITC-HSP27 peptide phosphorylation (IMAP FP)
# assay-context: 10-point 1:3 dilution, top dose 300 μM; 60 pM active p38a, 1 nM inactive PRAK, 10 μM ATP, 2 h incubation; read-out: p38a/PRAK Enzyme pIC50 (converted)
metric: IC50

> print(dat)
                                   molecule  metric  data.value
1  Cc1cnnc(COc2cc(C)n(-c3cc(-c4ccnc(C(C)(C)O)n4)ncc3C)c(=O)c2Cl)c1 [Example 28A]    IC50    > 316 µM
2  Cc1cnc(-c2ccn(C(C)(C)CO)n2)cc1-n1c(C)cc(OCc2ncc(F)cc2F)c(Cl)c1=O (single isomer, unassigned) [Example 25B]    IC50    > 316 µM
3  Cc1cnc(-c2ccnc(C(C)(C)O)n2)c(C)c1-n1c(C)cc(OCc2ncc(F)cc2F)c(Cl)c1=O (single isomer, unassigned) [Example 49B]    IC50    > 316 µM
4  Cc1cnc(-c2ccnc(C3CC(O)C3)n2)cc1-n1c(C)cc(OCc2ncc(F)cc2F)c(Cl)c1=O (single isomer, unassigned) [Example 26A]    IC50        2 µM
5  Cc1cnc(-c2ccnc(C(C)(C)C(F)F)n2)cc1-n1c(C)cc(OCc2ncc(F)cc2F)c(Cl)c1=O (atropisomer, axis not shown) [Example 5]    IC50     3.16 µM
6  Cc1cnc(-n2ccc(C(C)(C)CO)n2)cc1-n1c(C)cc(OCc2ncc(F)cc2F)c(Cl)c1=O (single isomer, unassigned) [Example 37A]    IC50     2.51 µM

====

# subject-of-test: p38a/PRAK (Homo sapiens (Human), UniProt Q16539)
# test-method-notes: p38a/PRAK biochemical assay: activation of PRAK by p38, FITC-HSP27 peptide phosphorylation (IMAP FP)
# assay-context: 10-point 1:3 dilution, top dose 300 μM; 60 pM active p38a, 1 nM inactive PRAK, 10 μM ATP, 2 h incubation; read-out: p38a/PRAK Enzyme pIC50 (converted)

molecule	IC50
Cc1cnc(-c2ccc3c(n2)C(C)(O)CC3)cc1-n1c(C)cc(OCc2ncc(F)cc2F)c(Cl)c1=O (single isomer, unassigned) [Example 32C]	6.31 µM
Cc1cnc(-c2ccnc(C(C)(C)O)n2)cc1-n1c(C)cc(OCc2cc(C(F)F)ccn2)c(Cl)c1=O (single isomer, unassigned) [Example 27B]	> 316 µM
Cc1cnc(-n2ccc(C(C)(C)CO)n2)cc1-n1c(C)cc(OCc2ncc(F)cc2F)c(Cl)c1=O (single isomer, unassigned) [Example 37B]	> 316 µM
Cc1cnc(-c2ccnc([C@](C)(O)C3CC3)n2)cc1-n1c(C)cc(OCc2ncc(F)cc2F)c(Cl)c1=O (single isomer, unassigned) [Example 6C]	> 316 µM
Cc1cnc(-c2ccnc(C(O)C3CC3)n2)cc1-n1c(C)cc(OCc2ncc(F)cc2F)c(Cl)c1=O (single isomer, unassigned) [Example 35C]	> 316 µM
Cc1cnc(-c2ccnc([C@@](C)(O)C3CC3)n2)cc1-n1c(C)cc(OCc2ncc(F)cc2F)c(Cl)c1=O (single isomer, unassigned) [Example 6A]	10 µM
Cc1c(-n2c(C)cc(OCc3ncc(F)cc3F)c(Cl)c2=O)ccnc1-n1ccc(C(C)(C)O)n1 (single isomer, unassigned) [Example 52A]	> 316 µM
[2H]C([2H])([2H])C(O)(c1nccc(-c2ncc(C)c(-n3c(C)cc(OCc4ncc(F)cc4F)c(Cl)c3=O)c2F)n1)C([2H])([2H])[2H] (single isomer, unassigned) [Example 66A]	> 316 µM
[2H]C([2H])(Oc1cc(C)n(-c2c(C)cnc(-c3cccc(C(C)(C)O)[n+]3[O-])c2F)c(=O)c1Cl)c1ncc(F)cc1F [Example 68A]	> 316 µM
[2H]C([2H])(Oc1cc(C)n(-c2cc(-c3ccnc(C(C)(C)O)c3F)ncc2C)c(=O)c1Cl)c1ncc(F)cc1F (single isomer, unassigned) [Example 64A]	2 µM
Cc1cnc(-c2ccnc(C(C)(C)O)n2)cc1-n1c(C)cc(OCc2cc(C(F)F)ccn2)c(Cl)c1=O (single isomer, unassigned) [Example 27A]	126 µM

====

# subject-of-test: p38a/MK2 (Homo sapiens (Human), UniProt P49137+Q16539)
# Sequence (P49137 46-400): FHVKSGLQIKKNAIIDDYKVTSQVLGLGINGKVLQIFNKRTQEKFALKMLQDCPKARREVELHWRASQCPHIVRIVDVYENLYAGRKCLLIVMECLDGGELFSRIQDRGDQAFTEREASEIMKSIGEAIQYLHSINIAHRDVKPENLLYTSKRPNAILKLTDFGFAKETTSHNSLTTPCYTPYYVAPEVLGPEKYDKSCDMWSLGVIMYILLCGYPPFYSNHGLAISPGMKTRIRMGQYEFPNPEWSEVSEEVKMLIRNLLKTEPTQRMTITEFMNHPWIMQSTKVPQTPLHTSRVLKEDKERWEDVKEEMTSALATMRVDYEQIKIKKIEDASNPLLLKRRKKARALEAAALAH
# Sequence (Q16539 whole entry): as the sequence (Q16539 whole entry) above
# test-method-notes: p38a/MK2 biochemical assay: activation of MK2 by p38, FITC-HSP27 peptide phosphorylation (IMAP FP)
# assay-context: 10-point 1:3 dilution, top dose 1 μM; 60 pM active p38a, 1 nM inactive MK2, 10 μM ATP, 2 h incubation; read-out: p38a/MK2 (1 μM) Enzyme pIC50 (converted)
Mark satisfied only for IC50 values smaller than 5 nM; exact matches and larger values are not satisfied.

compound	assigned-category
CCc1cnc(-c2ccnc(C(C)(C)O)n2)cc1-n1c(C)cc(OCc2ncc(F)cc2F)c(Cl)c1=O (single isomer, unassigned) [Example 29A]	not satisfied
Cc1cnc(-n2ccc(C(C)(C)CO)n2)cc1-n1c(C)cc(OCc2ncc(F)cc2F)c(Cl)c1=O (single isomer, unassigned) [Example 37B]	not satisfied
Cc1cnc(-c2cccc(C(C)(C)O)n2)c(F)c1-n1c(C)cc(OCc2ncc(F)cc2F)c(Cl)c1=O (single isomer, unassigned) [Example 63A]	not satisfied
Cc1cnc(-n2ccc(C(=O)NC3CC3)n2)cc1-n1c(C)cc(OCc2ncc(F)cc2F)c(Cl)c1=O [Example 44A]	not satisfied
Cc1cnc(-c2ccnc(C(C)(C)O)n2)c(C)c1-n1c(C)cc(OCc2ncc(F)cc2F)c(Cl)c1=O (single isomer, unassigned) [Example 49A]	not satisfied
Cc1cnc(-n2ccc(C(C)(C)O)n2)cc1-n1c(C)cc(OCc2ncc(F)cc2Cl)c(Cl)c1=O (single isomer, unassigned) [Example 47A]	satisfied
Cc1cnc(-c2cncc(C(C)(C)O)n2)cc1-n1c(C)cc(OCc2ncc(F)cc2F)c(Cl)c1=O (single isomer, unassigned) [Example 51B]	not satisfied
Cc1cnc(-c2ccnc(C3(O)CCOCC3)n2)cc1-n1c(C)cc(OCc2ncc(F)cc2F)c(Cl)c1=O (single isomer, unassigned) [Example 39A]	not satisfied
[2H]C([2H])(Oc1cc(C)n(-c2c(C)cnc(-c3cccc(C(C)(C)O)[n+]3[O-])c2F)c(=O)c1Cl)c1ncc(F)cc1F [Example 68A]	not satisfied
Cc1cnc(COc2cc(C)n(-c3cc(-c4ccnc(C(C)(C)O)n4)ncc3C)c(=O)c2Cl)c(F)c1 (single isomer, unassigned) [Example 23A]	satisfied
COCC(C)(O)c1nccc(-c2cc(-n3c(C)cc(OCc4ncc(F)cc4F)c(Cl)c3=O)c(C)cn2)n1 (racemic) [Example 55]	not satisfied
[2H]C([2H])(Oc1cc(C)n(-c2cc(-c3ccnc(C(C)(C)O)c3F)ncc2C)c(=O)c1Cl)c1ncc(F)cc1F (single isomer, unassigned) [Example 64A]	satisfied
[2H]C([2H])(Oc1cc(C)n(-c2c(C)cnc(-c3ccnc(C(O)(C([2H])([2H])[2H])C([2H])([2H])[2H])n3)c2F)c(=O)c1Cl)c1ncc(F)cc1F (single isomer, unassigned) [Example 67A]	satisfied

====

# subject-of-test: p38a/PRAK (Homo sapiens (Human))
# test-method-notes: p38a/PRAK biochemical assay: activation of PRAK by p38, FITC-HSP27 peptide phosphorylation (IMAP FP)
# assay-context: 10-point 1:3 dilution, top dose 300 μM; 60 pM active p38a, 1 nM inactive PRAK, 10 μM ATP, 2 h incubation; read-out: p38a/PRAK Enzyme pIC50 (converted)
# Text: Expression vectors of the recombinant MK2 and PRAK kinases were constructed by cloning of the codon optimized gene sequences of MK2 (Uniprot ID P49137, amino acid fragment F46-H400), or PRAK (Uniprot ID Q81W41, amino acid fragment M1-Q471) into pGEX-4T1 (GE) for over expression of these kinases with N-terminal GST-tag. […]
In this section, each of the compounds is paired with its reported IC50.
metric: IC50 (µM)

> print(dat)
                                   compound  metric  unit.abbrev  result.modifier  data.value
1  Cc1cnc(-n2ccc(CC(C)(C)O)n2)cc1-n1c(C)cc(OCc2ncc(F)cc2F)c(Cl)c1=O (single isomer, unassigned) [Example 46B]    IC50           µM                >         316
2  Cc1cnc(-n2nc(C(C)(C)O)cc2C)cc1-n1c(C)cc(OCc2ncc(F)cc2F)c(Cl)c1=O (single isomer, unassigned) [Example 19A]    IC50           µM                =        5.01
3  Cc1cnc(-c2cccc(C(C)(C)O)n2)c(F)c1-n1c(C)cc(OCc2ncc(F)cc2F)c(Cl)c1=O (single isomer, unassigned) [Example 63B]    IC50           µM                =       0.316
4  Cc1cnc(-c2ccnc(C3(O)CCC3)n2)cc1-n1c(C)cc(OCc2ncc(F)cc2F)c(Cl)c1=O (single isomer, unassigned) [Example 41A]    IC50           µM                =        3.16
5  Cc1cnc(-c2ccnc([C@](C)(O)C3CC3)n2)cc1-n1c(C)cc(OCc2ncc(F)cc2F)c(Cl)c1=O (single isomer, unassigned) [Example 6B]    IC50           µM                =          10
6  Cc1cnc(-c2ccnc(C(C)(C)O)n2)c(F)c1-n1c(C)cc(OCc2ncc(F)cc2F)c(Cl)c1=O (single isomer, unassigned) [Example 53B]    IC50           µM                =       0.794
